Assay: Cytotoxicity assay (CellTiter-Glo, 72 h), Jurkat
Format: cell-based
Conditions: human, Jurkat cells (T lymphoma), conc 0.00305176 uM, raw data (replicates)
Response field label: string, one of MET (viability at 72 h, 0.00305176 uM strictly below 90%) or NOT MET.

Molecule	Classification
COC1CC2CCC(C)C(O)(O2)C(=O)C(=O)N2CCCCC2C(=O)OC(C(C)CC2CCC(O)C(OC)C2)CCC(C)C=C(C)C(O)C(OC)C(=O)C(C)CC(C)C=CC=CC=C1C (stereo not drawn)	MET
CO[C@H]1C[C@@H]2CC[C@@H](C)[C@@](O)(O2)C(=O)C(=O)N2CCCC[C@H]2C(=O)O[C@H]([C@H](C)C[C@@H]2CC[C@@H](O)[C@H](OC)C2)CC(=O)[C@H](C)/C=C(\C)[C@@H](O)CC(=O)[C@H](C)C[C@H](C)/C=C/C=C(C)/C=C/1C	NOT MET
COC1CC2CCC(C)C(O)(O2)C(=O)C(=O)N2CCCCC2C(=O)OC(C(C)CC2CCC(O)C(OC)C2)CC(=O)C(C)C=C(C)C(O)CC(=O)C(C)C=C(C)C=CC=CC=C1C (stereo not drawn)	NOT MET
CO[C@H]1C[C@@H]2CC[C@@H](C)[C@@](O)(O2)C(=O)C(=O)N2CCCC[C@H]2C(=O)O[C@H]([C@H](C)C[C@@H]2CC[C@@H](O)[C@H](OC)C2)CC(=O)[C@H](C)/C=C(\C)[C@@H](O)CC[C@H](C)/C=C/C=C/C=C/1C	NOT MET
COC1CC2CCC(C)C(O)(O2)C(=O)C(=O)N2CCCCC2C(=O)OC(C(C)CC2CCC(O)C(OC)C2)CC(=O)C(C)C=C(C)C(O)C(OC)C(=O)C(C)CC(C)C=CCCC=C1C (stereo not drawn)	NOT MET
CO[C@@H]1/C=C/C=C/[C@@H](C)C[C@@H](C)C(=O)C[C@H](O)/C(C)=C/[C@@H](C)C(=O)C[C@@H]([C@H](C)C[C@@H]2CC[C@@H](O)[C@H](OC)C2)OC(=O)[C@@H]2CCCCN2C(=O)C(=O)[C@]2(O)O[C@@H](CC[C@H]2C)C1	NOT MET
CO[C@@H]1C[C@H](C[C@@H](C)[C@@H]2CC(=O)[C@H](C)/C=C(\C)[C@@H](O)[C@@H](OC)C(=O)[C@H](C)C[C@H](C)/C=C/C=C/C=C(\C)[C@H](O)C[C@@H]3CC[C@@H](C)[C@@](O)(O3)C(=O)C(=O)N3CCCC[C@H]3C(=O)O2)CC[C@H]1O [Compound 17, (16R)-16-O-demethyl rapamycin]	NOT MET
CO[C@H]1C[C@@H]2CC[C@@H](C)[C@@](O)(O2)C(=O)C(=O)N2CCCC[C@H]2C(=O)O[C@H]([C@H](C)C[C@@H]2CC[C@@H](O)[C@H](OC)C2)CC(=O)[C@H](C)/C=C(\C)[C@@H](O)[C@@H](OC)C(=O)[C@H](C)C[C@H](C)/C=C/C=C/C=C/1C [Compound 1, rapamycin, reference compound]	MET
COC1CC2CCC(C)C(O)(O2)C(=O)C(=O)N2CCCCC2C(=O)OC(C(C)CC2CCC(O)C(OC)C2)CC(O)CC(=O)C(C)C=C(C)C(O)CC(=O)C(C)CC(C)C=CC=CC=C1C (stereo not drawn)	NOT MET
